Some compounds, each annotated with its measured dTm.
molecular target: ~100 representative kinases (Homo sapiens, UniProt O75582); construct: Recombinant protein kinase domains with a concentration of 2 μM; test: DSF 100 kinase selectivity screen; assay type: binding; conditions: Protein RPS6KA5; DSF; average of three replicates;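 further: compound tested at 20 µM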
Sequence (O75582 whole entry, the tested form may be a part): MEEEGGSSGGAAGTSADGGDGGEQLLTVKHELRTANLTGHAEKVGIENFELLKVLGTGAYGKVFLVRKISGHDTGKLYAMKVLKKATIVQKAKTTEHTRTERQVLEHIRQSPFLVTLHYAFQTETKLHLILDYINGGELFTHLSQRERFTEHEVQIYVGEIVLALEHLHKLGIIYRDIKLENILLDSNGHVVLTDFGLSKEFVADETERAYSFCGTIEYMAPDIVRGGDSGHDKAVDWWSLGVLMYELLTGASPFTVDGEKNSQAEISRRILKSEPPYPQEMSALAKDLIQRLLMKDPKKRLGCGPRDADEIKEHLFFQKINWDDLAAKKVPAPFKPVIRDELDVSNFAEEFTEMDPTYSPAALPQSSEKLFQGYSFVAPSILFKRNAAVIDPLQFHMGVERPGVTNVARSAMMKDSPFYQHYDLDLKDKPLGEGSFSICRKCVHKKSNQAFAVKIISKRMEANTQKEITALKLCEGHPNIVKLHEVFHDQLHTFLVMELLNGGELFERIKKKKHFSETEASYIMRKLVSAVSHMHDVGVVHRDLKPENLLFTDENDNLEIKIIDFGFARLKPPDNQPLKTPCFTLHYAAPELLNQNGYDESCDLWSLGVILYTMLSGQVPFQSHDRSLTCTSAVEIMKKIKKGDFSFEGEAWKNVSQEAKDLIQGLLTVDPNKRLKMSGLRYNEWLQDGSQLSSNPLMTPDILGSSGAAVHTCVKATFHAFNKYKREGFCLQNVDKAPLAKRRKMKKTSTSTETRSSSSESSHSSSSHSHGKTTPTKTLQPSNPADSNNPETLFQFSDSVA
Readout Kind: dTm (K)

{"Compound": "Cc1cc(NC(=O)C2(C(=O)Nc3ccc(F)cc3)CC2)cc(-c2c[nH]c3ncnc(N4CCOCC4)c23)c1", "Readout Kind": "dTm", "Measured Value": 3.89}
{"Compound": "O=C(Nc1cccc(-c2c[nH]c3ncnc(N4CCOCC4)c23)c1)C1(C(=O)Nc2cc(Br)c(F)cc2F)CC1", "Readout Kind": "dTm", "Measured Value": 0.35}
{"Compound": "COc1cc2c(Oc3ccc(NC(=O)C4(C(=O)Nc5ccc(F)cc5)CC4)cc3F)ccnc2cc1OCCCN1CCOCC1 [Foretinib, reference compound]", "Readout Kind": "dTm", "Measured Value": 0.57}
{"Compound": "COc1cc(C(=O)N2CCOCC2)c(F)cc1Nc1nc(N(C)C)c2c(Cl)c[nH]c2n1", "Readout Kind": "dTm", "Measured Value": 2.79}
{"Compound": "O=C(Nc1cccc(-c2c[nH]c3ncnc(N4CCOCC4)c23)c1)C1(C(=O)Nc2cccc3c2CCC3)CC1", "Readout Kind": "dTm", "Measured Value": 0.69}

Data origin, for the record: paper PMC12136037
